- measurement.description: Nonlethal toxicity in zebrafish embryos assessed as embryo survival at 50 uM after 72 hrs by visual analysis (reference value: 100%)
- Format: organism-based, Danio rerio
- test.context: in vivo
quantity: survival at 72 h, 50 µM (%)

chem_smiles=Cc1[nH]c(C(=O)Nc2cc(S(=O)(=O)N3CCOCC3)ccc2OCCCCCCCC(=O)NO)c2c1C(=O)CCCC2 endpoint_value=100

---

- tested.on: Bromodomain-containing protein 3 (Homo sapiens)
- Sequence (Q15059 whole entry, the tested form may be a part): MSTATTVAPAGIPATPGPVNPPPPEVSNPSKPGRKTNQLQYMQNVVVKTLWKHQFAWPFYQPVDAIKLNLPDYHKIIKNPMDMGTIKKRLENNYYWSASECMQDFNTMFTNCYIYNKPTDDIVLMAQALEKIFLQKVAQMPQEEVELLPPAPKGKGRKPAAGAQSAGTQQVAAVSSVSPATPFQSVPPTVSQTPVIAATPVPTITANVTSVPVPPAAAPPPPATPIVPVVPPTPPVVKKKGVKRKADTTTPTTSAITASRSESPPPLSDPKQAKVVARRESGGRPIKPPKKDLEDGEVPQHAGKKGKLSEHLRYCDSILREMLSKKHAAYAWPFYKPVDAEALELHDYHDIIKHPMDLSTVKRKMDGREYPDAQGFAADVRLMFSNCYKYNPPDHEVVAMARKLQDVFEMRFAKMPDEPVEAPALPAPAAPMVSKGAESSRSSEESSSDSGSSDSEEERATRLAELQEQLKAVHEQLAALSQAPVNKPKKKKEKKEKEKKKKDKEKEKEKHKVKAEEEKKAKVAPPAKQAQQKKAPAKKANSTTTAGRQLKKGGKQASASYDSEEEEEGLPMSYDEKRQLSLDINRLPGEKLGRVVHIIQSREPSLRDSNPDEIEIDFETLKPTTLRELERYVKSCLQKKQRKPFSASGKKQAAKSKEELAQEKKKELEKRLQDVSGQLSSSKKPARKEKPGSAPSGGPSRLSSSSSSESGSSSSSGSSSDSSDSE
- measurement.description: Binding affinity to human BRD3 domain 2 assessed as dissociation constant by isothermal titration calorimetry assay
quantity: Kd (µM)

chem_smiles=COc1ccc(S(=O)(=O)n2ccc(/C=C/C(=O)NO)c2)cc1NC(=O)c1[nH]c(C)c2c1CCCCC2=O readout_unit=µM value_comparator== endpoint_value=3.75
chem_smiles=CCc1c(C(=O)Nc2cc(S(=O)(=O)N(CC)CC)ccc2O)[nH]c(C)c1C(C)=O readout_unit=µM value_comparator== endpoint_value=0.49
chem_smiles=Cc1[nH]c(C(=O)Nc2cc(S(=O)(=O)N3CCOCC3)ccc2OCCCCCCCC(=O)NO)c2c1C(=O)CCCC2 readout_unit=µM value_comparator== endpoint_value=0.1
chem_smiles=CCc1c(C(=O)Nc2cc(/C=C/C(=O)NO)ccc2OC)[nH]c(C)c1C(C)=O readout_unit=µM value_comparator== endpoint_value=7.55
chem_smiles=CCc1c(C(=O)Nc2cccc(/C=C/C(=O)NO)c2)[nH]c(C)c1C(C)=O readout_unit=µM value_comparator=> endpoint_value=10

---

Each entry below lists one item and its recorded Kd value.
- tested.on: Bromodomain-containing protein 2 (Homo sapiens)
- Sequence (P25440 whole entry, the tested form may be a part): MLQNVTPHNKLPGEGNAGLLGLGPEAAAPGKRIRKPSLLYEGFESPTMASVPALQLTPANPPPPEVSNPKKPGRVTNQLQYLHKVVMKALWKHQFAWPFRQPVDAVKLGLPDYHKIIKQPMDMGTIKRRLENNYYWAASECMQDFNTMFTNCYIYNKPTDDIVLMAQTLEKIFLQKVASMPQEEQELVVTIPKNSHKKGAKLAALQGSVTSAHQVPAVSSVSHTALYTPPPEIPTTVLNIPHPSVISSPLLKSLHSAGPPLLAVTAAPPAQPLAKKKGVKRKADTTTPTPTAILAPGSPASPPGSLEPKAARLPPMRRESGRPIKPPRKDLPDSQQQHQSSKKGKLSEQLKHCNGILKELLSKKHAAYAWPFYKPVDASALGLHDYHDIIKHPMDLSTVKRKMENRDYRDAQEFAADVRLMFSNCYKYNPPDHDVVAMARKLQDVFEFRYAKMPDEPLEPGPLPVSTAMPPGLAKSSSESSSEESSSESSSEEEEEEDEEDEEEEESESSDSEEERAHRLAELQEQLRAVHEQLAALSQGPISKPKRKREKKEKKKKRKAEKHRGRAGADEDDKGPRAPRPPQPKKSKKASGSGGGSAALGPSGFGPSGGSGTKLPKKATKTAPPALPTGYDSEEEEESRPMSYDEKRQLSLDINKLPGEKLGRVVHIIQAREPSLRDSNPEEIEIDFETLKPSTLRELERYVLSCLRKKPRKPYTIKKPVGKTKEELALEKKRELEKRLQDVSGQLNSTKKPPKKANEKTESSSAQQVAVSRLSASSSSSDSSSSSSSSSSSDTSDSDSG
- measurement.description: Binding affinity to human BRD2 domain 1 assessed as dissociation constant by isothermal titration calorimetry assay
quantity: Kd (nM)

chem_smiles=CCc1c(C(=O)Nc2cc(S(=O)(=O)N(CC)CC)ccc2O)[nH]c(C)c1C(C)=O tested_on="Bromodomain-containing protein 2 (Homo sapiens)" quantity=Kd endpoint_value=170
chem_smiles=Cc1[nH]c(C(=O)Nc2cc(S(=O)(=O)N3CCOCC3)ccc2OCCCCCCCC(=O)NO)c2c1C(=O)CCCC2 tested_on="Bromodomain-containing protein 2 (Homo sapiens)" quantity=Kd endpoint_value=27
chem_smiles=CCc1c(C(=O)Nc2cc(/C=C/C(=O)NO)ccc2OC)[nH]c(C)c1C(C)=O tested_on="Bromodomain-containing protein 2 (Homo sapiens)" quantity=Kd endpoint_value=7400
chem_smiles=CCc1c(C(=O)Nc2cccc(/C=C/C(=O)NO)c2)[nH]c(C)c1C(C)=O tested_on="Bromodomain-containing protein 2 (Homo sapiens)" quantity=Kd endpoint_value=7700
chem_smiles=COc1ccc(S(=O)(=O)n2ccc(/C=C/C(=O)NO)c2)cc1NC(=O)c1[nH]c(C)c2c1CCCCC2=O tested_on="Bromodomain-containing protein 2 (Homo sapiens)" quantity=Kd endpoint_value=230

---

Each entry below lists one item and its recorded IC50 value.
- Tested on: HPBALL
- measurement.description: Anticancer activity against human HPBALL cells assessed as cell growth inhibition by CellTiter-Glo luminescent assay
- Format: functional, cell-based
quantity: IC50 (µM)

chem_smiles=CCc1c(C(=O)Nc2cccc(/C=C/C(=O)NO)c2)[nH]c(C)c1C(C)=O value_comparator=> endpoint_value=25
chem_smiles=COc1ccc(S(=O)(=O)n2ccc(/C=C/C(=O)NO)c2)cc1NC(=O)c1[nH]c(C)c2c1CCCCC2=O value_comparator== endpoint_value=6.31
chem_smiles=Cc1sc2c(c1C)C(c1ccc(Cl)cc1)=N[C@@H](CC(=O)Nc1ccc(O)cc1)c1nnc(C)n1-2 value_comparator== endpoint_value=7.01
chem_smiles=CCc1c(C(=O)Nc2cc(/C=C/C(=O)NO)ccc2OC)[nH]c(C)c1C(C)=O value_comparator== endpoint_value=6.79
chem_smiles=O=C(CCCCCCNC(=O)c1cnc(N(c2ccccc2)c2ccccc2)nc1)NO value_comparator== endpoint_value=6.7
chem_smiles=Cc1[nH]c(C(=O)Nc2cc(S(=O)(=O)N3CCOCC3)ccc2OCCCCCCCC(=O)NO)c2c1C(=O)CCCC2 value_comparator== endpoint_value=7.13
